- Test system: H9c2
- experiment: Cytotoxicity against rat H9c2 cells at 30 uM
- Type: cell-based
- experimental_conditions: h9c2, 30 µM
measurement_name: Activity

molecule | measurement_name | result
CN1C(=O)C(NCCN)=C(c2cn(C)c3ccccc23)C1=O | Activity | Non-Toxic
CN1C(=O)C(c2c[nH]c3ccccc23)=C(c2cn(CCCN)c3ccccc23)C1=O | Activity | Toxic
CCCNC1=C(c2cn(C)c3ccccc23)C(=O)N(C)C1=O | Activity | Non-Toxic
CCCCCNC1=C(c2cn(C)c3ccccc23)C(=O)N(C)C1=O | Activity | Non-Toxic

###

- Tested on: HL-60
- experiment: Cytoprotective activity against H2O2-induced necrosis in human HL60 cells incubated for 1 hr followed by H2O2 stimulation by LDH release assay
- Assay type: functional, cell-based
- experimental_conditions: HL-60, 1 h
Parameter: IC50. Scope: all listed entries.
Please state the figure in nM; there is no need to write the unit.

Solved entries (count: 5):
molecule | subject_of_test | IC50 (nM)
CNC1=C(c2cn(C)c3ccccc23)C(=O)N(C)C1=O | HL-60 | 910
CCCNC1=C(c2cn(C)c3ccccc23)C(=O)N(C)C1=O | HL-60 | 440
CCCCCNC1=C(c2cn(C)c3ccccc23)C(=O)N(C)C1=O | HL-60 | 250
CN1C(=O)C(NCCCCN)=C(c2cn(C)c3ccccc23)C1=O | HL-60 | 1300
CN1C(=O)C(NCCCN)=C(c2cn(C)c3ccccc23)C1=O | HL-60 | 1300

[Q] Entry CCCCNC1=C(c2cn(C)c3ccccc23)C(=O)N(C)C1=O : reported IC50 = ?
[A] 420

[Q] Entry CN1C(=O)C(NCCO)=C(c2cn(C)c3ccccc23)C1=O : reported IC50 = ?
[A] 1300

[Q] Entry CCCCCCNC1=C(c2cn(C)c3ccccc23)C(=O)N(C)C1=O : reported IC50 = ?
[A] 380

[Q] Entry CN1C(=O)C(NCCCO)=C(c2cn(C)c3ccccc23)C1=O : reported IC50 = ?
[A] 1900

[Q] Entry CN1C(=O)C(NCCCCO)=C(c2cn(C)c3ccccc23)C1=O : reported IC50 = ?
[A] 1100

[Q] Entry CN1C(=O)C(NCCN)=C(c2cn(C)c3ccccc23)C1=O : reported IC50 = ?
[A] 1000

###

Parameter: IC50. Scope: all listed entries.
- Test system: H9c2
- experiment: Cytoprotective activity against TBHP-induced necrosis in rat H9c2 cells incubated for 4 hrs by LDH release assay
- Format: functional, cell-based
- experimental_conditions: H9c2, 4 h
Please state the figure in µM; there is no need to write the unit.

molecule | IC50, µM
CN1C(=O)C(c2c[nH]c3ccccc23)=C(c2cn(CCCN)c3ccccc23)C1=O | 3
CN1C(=O)C(NCCN)=C(c2cn(C)c3ccccc23)C1=O | 4.9
CCCCCNC1=C(c2cn(C)c3ccccc23)C(=O)N(C)C1=O | 3.9

Turning now to a further record.
[Q] Entry CCCNC1=C(c2cn(C)c3ccccc23)C(=O)N(C)C1=O : reported IC50 = ?
[A] 4.4
